# assayOverview: One-month toxicology study in rat
# conditionParameters: in vivo, body surface area (BSA) conversion, read-out: Human Equivalent Dose (HED) of the NOAEL
measurementKind: Human equivalent dose of the NOAEL at 1 month (mg/kg)

INSERT INTO results (compound, reportedvalue) VALUES
  ('COc1nn(C)cc1Nc1nccc(-c2c[nH]c3c(NC(=O)[C@@H](C)N4CCN(C)CC4)cccc23)n1 [golidocitinib]', 0.972);

---

# assayOverview: JACKPOT2 food effect cohort (50 mg, fasted vs high-fat meal)
# Format: in vivo, human
# conditionParameters: human, plasma, oral, 50 mg, 50 mg single dose, High-fat meal (Test), N = 11; read-out: Cmax, Geometric mean (%CV)
measurementKind: Cmax (ng/mL)

INSERT INTO measurements (compound, reportedvalue) VALUES
  ('COc1nn(C)cc1Nc1nccc(-c2c[nH]c3c(NC(=O)[C@@H](C)N4CCN(C)CC4)cccc23)n1 [golidocitinib]', 73.7);

---

# assayOverview: JACKPOT3 single-ascending-dose plasma PK, healthy Chinese participants
# Format: in vivo, human
# conditionParameters: human, plasma, oral; single dose 150 mg; median (min, max); read-out: t1/2 (converted)
measurementKind: half-life (h)

INSERT INTO measurements (structureassmiles, readoutunit, reportedvalue) VALUES
  ('COc1nn(C)cc1Nc1nccc(-c2c[nH]c3c(NC(=O)[C@@H](C)N4CCN(C)CC4)cccc23)n1', 'h', 46.7);

---

# assayOverview: JACKPOT2 multiple-ascending-dose plasma PK (once daily, 14 days)
# Assay type: in vivo, human
# conditionParameters: human, plasma, oral, 25 mg, 25 mg once daily, Day 1; geometric mean (CV%)
measurementKind: Cmax (ng/mL)

INSERT INTO measurements (compound, reportedvalue) VALUES
  ('COc1nn(C)cc1Nc1nccc(-c2c[nH]c3c(NC(=O)[C@@H](C)N4CCN(C)CC4)cccc23)n1 [golidocitinib]', 33.8);

---

# assayOverview: JACKPOT2 multiple-ascending-dose plasma PK (once daily, 14 days)
# Type: in vivo, human
# conditionParameters: human, plasma, oral, 50 mg, 50 mg once daily, Day 14; geometric mean (CV%); read-out: AUC0-24h
measurementKind: AUC(0-t) (ng·h/mL)

INSERT INTO measurements (structureassmiles, readoutunit, reportedvalue) VALUES
  ('COc1nn(C)cc1Nc1nccc(-c2c[nH]c3c(NC(=O)[C@@H](C)N4CCN(C)CC4)cccc23)n1', 'ng·h/mL', 3190);

---

# assayOverview: JACKPOT3 single-ascending-dose plasma PK, healthy Chinese participants
# Format: in vivo, human
# conditionParameters: human, plasma, oral; single dose 25 mg; mean (SD); read-out: Vz/F
measurementKind: Vd/F

INSERT INTO assay_data (compound, reportedvalue) VALUES
  ('COc1nn(C)cc1Nc1nccc(-c2c[nH]c3c(NC(=O)[C@@H](C)N4CCN(C)CC4)cccc23)n1 [golidocitinib]', '1040 L');

---

# assayOverview: JACKPOT2 single-ascending-dose plasma PK, healthy participants in USA
# Format: in vivo, human
# conditionParameters: human, plasma; single oral administration, across the dose range, US participants; read-out: median terminal half-life (t1/2)
measurementKind: half-life

INSERT INTO assay_data (structureassmiles, reportedvalue) VALUES
  ('COc1nn(C)cc1Nc1nccc(-c2c[nH]c3c(NC(=O)[C@@H](C)N4CCN(C)CC4)cccc23)n1', '42.8 to 51.3 h');

---

# assayOverview: JACKPOT2 food effect cohort (50 mg, fasted vs high-fat meal)
# Type: in vivo, human
# conditionParameters: human, plasma, oral; 50 mg single dose, Fasted (Reference), N = 12; read-out: tmax, Median (range)
# Procedure: A total of 42 and 24 healthy participants were enrolled in part A and part B, respectively. […] For food effect assessment, log-transformed PK parameters (AUC0-t, AUC0-inf, and Cmax) of golidocitinib were analyzed using a mixed-effect model including terms for study treatment (fasted and fed) as fixed effects, and participants nested within treatment as a random effect. […]
measurementKind: Tmax (h)

INSERT INTO assay_data (structureassmiles, reportedvalue) VALUES
  ('COc1nn(C)cc1Nc1nccc(-c2c[nH]c3c(NC(=O)[C@@H](C)N4CCN(C)CC4)cccc23)n1', 6);

---

# assayOverview: JACKPOT2 food effect cohort (50 mg, fasted vs high-fat meal)
# Type: in vivo, human
# conditionParameters: human, plasma, oral, 50 mg, 50 mg single dose, Fasted (Reference), N = 12; read-out: Cmax, Geometric mean (%CV)
# Procedure: A total of 42 and 24 healthy participants were enrolled in part A and part B, respectively. […] For food effect assessment, log-transformed PK parameters (AUC0-t, AUC0-inf, and Cmax) of golidocitinib were analyzed using a mixed-effect model including terms for study treatment (fasted and fed) as fixed effects, and participants nested within treatment as a random effect. […]
measurementKind: Cmax

INSERT INTO results (molecule, measurementkind, reportedvalue) VALUES
  ('COc1nn(C)cc1Nc1nccc(-c2c[nH]c3c(NC(=O)[C@@H](C)N4CCN(C)CC4)cccc23)n1 [golidocitinib]', 'Cmax', '68.8 ng/mL');

---

# assayOverview: JACKPOT2 food effect cohort (50 mg, fasted vs high-fat meal)
# Assay type: in vivo, human
# conditionParameters: human, plasma, oral, 50 mg, 50 mg single dose, High-fat meal (Test), N = 11; read-out: AUC0-inf, Geometric mean (%CV)
measurementKind: AUC(0-inf) (ng·h/mL)

INSERT INTO results (structureassmiles, reportedvalue) VALUES
  ('COc1nn(C)cc1Nc1nccc(-c2c[nH]c3c(NC(=O)[C@@H](C)N4CCN(C)CC4)cccc23)n1', 3400);

---

# assayOverview: JACKPOT2 food effect cohort (50 mg, fasted vs high-fat meal)
# Type: in vivo, human
# conditionParameters: human, plasma, oral, 50 mg, 50 mg single dose, Fasted (Reference), N = 12; read-out: AUC0-inf, Geometric mean (%CV)
# Procedure: A total of 42 and 24 healthy participants were enrolled in part A and part B, respectively. […] For food effect assessment, log-transformed PK parameters (AUC0-t, AUC0-inf, and Cmax) of golidocitinib were analyzed using a mixed-effect model including terms for study treatment (fasted and fed) as fixed effects, and participants nested within treatment as a random effect. […]
measurementKind: AUC(0-inf) (ng·h/mL)

INSERT INTO measurements (structureassmiles, reportedvalue) VALUES
  ('COc1nn(C)cc1Nc1nccc(-c2c[nH]c3c(NC(=O)[C@@H](C)N4CCN(C)CC4)cccc23)n1', 2960);

---

# assayOverview: JACKPOT3 single-ascending-dose plasma PK, healthy Chinese participants
# Type: in vivo, human
# conditionParameters: human, plasma, oral; single dose 100 mg; median (min, max); read-out: tmax
measurementKind: Tmax

INSERT INTO results (molecule, reportedvalue) VALUES
  ('COc1nn(C)cc1Nc1nccc(-c2c[nH]c3c(NC(=O)[C@@H](C)N4CCN(C)CC4)cccc23)n1 [golidocitinib]', '2 h');

---

# assayOverview: JACKPOT2 multiple-ascending-dose plasma PK (once daily, 14 days)
# Type: in vivo, human
# conditionParameters: human, plasma, oral, 50 mg, 50 mg once daily, Day 14; geometric mean (CV%)
# Excerpt: A total of 42 and 24 healthy participants were enrolled in part A and part B, respectively. In part A, a total of 30 participants were randomized into 5 SAD cohorts (n = 6 per cohort) and received a single dose of golidocitinib at different dose levels or a matching placebo in a 4:2 ratio. In the food effect cohort, a total of 12 participants were enrolled and received the study drug under fasted or fed conditions, with a sequential design. […]
measurementKind: Cmax (ng/mL)

INSERT INTO assay_data (structureassmiles, measurementkind, reportedvalue) VALUES
  ('COc1nn(C)cc1Nc1nccc(-c2c[nH]c3c(NC(=O)[C@@H](C)N4CCN(C)CC4)cccc23)n1', 'Cmax', 169);

---

# assayOverview: JACKPOT3 single-ascending-dose plasma PK, healthy Chinese participants
# Assay type: in vivo, human
# conditionParameters: human, plasma, oral; single dose 50 mg; geometric mean (CV%)
measurementKind: AUC(0-inf)

INSERT INTO assay_data (molecule, reportedvalue) VALUES
  ('COc1nn(C)cc1Nc1nccc(-c2c[nH]c3c(NC(=O)[C@@H](C)N4CCN(C)CC4)cccc23)n1 [golidocitinib]', '2.37 µg·h/mL');

---

# assayOverview: JACKPOT3 single-ascending-dose plasma PK, healthy Chinese participants
# Type: in vivo, human
# conditionParameters: human, plasma, oral; single dose 150 mg; mean (SD); read-out: Vz/F
measurementKind: Vd/F

INSERT INTO results (structureassmiles, reportedvalue) VALUES
  ('COc1nn(C)cc1Nc1nccc(-c2c[nH]c3c(NC(=O)[C@@H](C)N4CCN(C)CC4)cccc23)n1', '1210 L');

---

# assayOverview: JACKPOT3 single-ascending-dose plasma PK, healthy Chinese participants
# Format: in vivo, human
# conditionParameters: human, plasma, oral; single dose 50 mg; geometric mean (CV%)
measurementKind: Cmax (ng/mL)

INSERT INTO measurements (structureassmiles, measurementkind, reportedvalue) VALUES
  ('COc1nn(C)cc1Nc1nccc(-c2c[nH]c3c(NC(=O)[C@@H](C)N4CCN(C)CC4)cccc23)n1', 'Cmax', 75);
